PROCEDURE TEXT: self-splicing fitness, log relative to wild type (ln ratio); higher = more splicing; Tetrahymena group I intron in knt gene, E. coli kanamycin selection, DiMSum; sequences stand for … in CUCUCU…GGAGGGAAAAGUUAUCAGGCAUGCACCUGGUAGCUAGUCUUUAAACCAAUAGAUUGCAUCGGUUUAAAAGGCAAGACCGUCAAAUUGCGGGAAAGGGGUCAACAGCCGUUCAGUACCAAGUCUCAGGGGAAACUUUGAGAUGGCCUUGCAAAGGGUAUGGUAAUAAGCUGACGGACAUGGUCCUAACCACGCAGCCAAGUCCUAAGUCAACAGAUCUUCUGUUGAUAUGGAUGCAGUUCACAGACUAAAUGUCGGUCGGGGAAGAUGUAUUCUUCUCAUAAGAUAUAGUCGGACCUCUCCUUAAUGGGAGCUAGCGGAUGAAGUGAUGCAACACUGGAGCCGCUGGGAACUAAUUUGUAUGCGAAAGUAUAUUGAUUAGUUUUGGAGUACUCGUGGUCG;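 also: selection with 25 µg/mL kanamycin versus none on LB agar overnight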
SETUP CONDITIONS: 37 °C
So basically: self-splicing fitness (ln) at -0.6 or higher? That is Criterion met. Lower than -0.6? That is Criterion not met.

POLYMER SEQUENCE: CGACAGCAAUAUUACGUGUU
CLASS LABEL: Criterion not met

POLYMER SEQUENCE: AACCAGCAAUAUUACGGGUU
CLASS LABEL: Criterion not met

POLYMER SEQUENCE: UUUUAGCAAUAUUACGGUCA
CLASS LABEL: Criterion met

POLYMER SEQUENCE: AUGAAGCAAUAUUACGGUCU
CLASS LABEL: Criterion met

POLYMER SEQUENCE: AGAAAGCAAUAUUACGAACG
CLASS LABEL: Criterion met

POLYMER SEQUENCE: UCGCAGCAAUAUUACGCGGA
CLASS LABEL: Criterion not met

POLYMER SEQUENCE: AGGAAGCAAUAUUACGAAAG
CLASS LABEL: Criterion not met

POLYMER SEQUENCE: ACAAAGCAAUAUUACGUCAC
CLASS LABEL: Criterion not met

POLYMER SEQUENCE: UUUUAGCAAUAUUACGUAAA
CLASS LABEL: Criterion met

POLYMER SEQUENCE: CUCAAGCAAUAUUACGUAAG
CLASS LABEL: Criterion met

POLYMER SEQUENCE: UCAAAGCAAUAUUACGGCAA
CLASS LABEL: Criterion met

POLYMER SEQUENCE: UGAAAGCAAUAUUACGCGGU
CLASS LABEL: Criterion not met

POLYMER SEQUENCE: GCACAGCAAUAUUACGCGAC
CLASS LABEL: Criterion not met

POLYMER SEQUENCE: GUUUAGCAAUAUUACGUAAU
CLASS LABEL: Criterion met
